- Substrate: NP of A/Wisconsin/67/2005(H3N2/H3W) (influenza A virus A/Wisconsin/67/2005 (H3N2))
- Sequence (P03466 whole entry): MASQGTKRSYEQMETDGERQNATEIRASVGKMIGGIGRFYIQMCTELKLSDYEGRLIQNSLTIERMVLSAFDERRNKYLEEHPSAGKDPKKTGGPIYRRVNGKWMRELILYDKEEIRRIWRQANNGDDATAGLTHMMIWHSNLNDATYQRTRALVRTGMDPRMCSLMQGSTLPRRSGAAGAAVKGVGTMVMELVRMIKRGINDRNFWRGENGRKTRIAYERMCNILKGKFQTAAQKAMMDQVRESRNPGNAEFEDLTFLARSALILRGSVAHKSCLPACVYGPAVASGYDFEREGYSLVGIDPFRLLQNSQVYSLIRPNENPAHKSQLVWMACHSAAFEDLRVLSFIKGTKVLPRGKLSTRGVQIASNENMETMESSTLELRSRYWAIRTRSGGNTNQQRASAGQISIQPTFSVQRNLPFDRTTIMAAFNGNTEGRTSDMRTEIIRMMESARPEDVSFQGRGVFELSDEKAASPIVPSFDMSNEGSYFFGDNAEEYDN
- assay.text: sandwich ELISA, capture IgG; NP of lysed virus titrated; HRP-NP17 detection
List of EC50 values.

Observe how each entry below is paired with its result.
NP6 (antibody, V domains shown) VH: EVQLVESGGGLVQPGGSLRLSCAASGFTINDGSIHWVRQAPGKGLEWVAGIGPFGGFTYYADSVKGRFTISADTSKNTAYLQMNSLRAEDTAVYYCARSGYSGSFDYWGQGTLVTVSS VL: DIQMTQSPSSLSASVGDRVTITCRASQDVYFGVAWYQQKPGKAPKLLIYGTSYLYSGVPSRFSGSGSGTDFTLTISSLQPEDFATYYCQQFSNWPITFGQGTKVEIKR :: 1.98 nM
NP21 (antibody, V domains shown) VH: EVQLVESGGGLVQPGGSLRLSCAASGFTINGYGIHWVRQAPGKGLEWVAGIWPYGGSTFYADSVKGRFTISADTSKNTAYLQMNSLRAEDTAVYYCARFYNNHGGIMDYWGQGTLVTVSS VL: DIQMTQSPSSLSASVGDRVTITCRASQDVYFYVAWYQQKPGKAPKLLIYGSRWLYSGVPSRFSGSGSGTDFTLTISSLQPEDFATYYCQQYSNFPVTFGQGTKVEIKR :: 0.848 nM

query: Need EC50 of NP22 (antibody, V domains shown) VH: EVQLVESGGGLVQPGGSLRLSCAASGFTISDWSIHWVRQAPGKGLEWVAGIWPYWGSTSYADSVKGRFTISADTSKNTAYLQMNSLRAEDTAVYYCARGFYSWFDYWGQGTLVTVSS VL: DIQMTQSPSSLSASVGDRVTITCRASQDVFSWVAWYQQKPGKAPKLLISSASSLYSGVPSRFSGSGSGTDFTLTISSLQPEDFATYYCQQSWDYPITFGQGTKVEIKR , thanks.
result: 82.8 nM
